# method: MTT assay, cytotoxicity against normal HEK293 cells
# Type: cell-based, human
# condition description: human, HEK293 cells
measured endpoint: viability at 48 h, 10 μM (%)
Note: unit % is implicit; provide only the numeric part.

For orientation, consider the following solved cases.
compound: CC(C)Cc1ccc(C(C)C(=O)NN=Cc2ccc(OCC(=O)NN=Cc3cccc4ccccc34)cc2)cc1 (stereo not shown)
u: %
viability at 48 h, 10 μM: 68.7
--
compound: COc1ccc(C=NNC(=O)COc2ccc(C=NNC(=O)C(C)c3ccc(CC(C)C)cc3)cc2)cc1OC (stereo not shown)
u: %
viability at 48 h, 10 μM: 30.5

Asked: Tell me the measured viability at 48 h, 10 μM of COc1ccc(C=NNC(=O)COc2ccc(C=NNC(=O)C(C)c3ccc(CC(C)C)cc3)cc2)cc1O (stereo not shown) , please.
Given back: 38.1

Asked: Please answer likewise for CC(C)Cc1ccc(C(C)C(=O)NN=Cc2ccc(OCC(=O)NN=Cc3ccc(F)cc3)cc2)cc1 (stereo not shown)
Given back: 27.5
